Target: human α7 nAChR (Homo sapiens, UniProt P36544)
Construct: expressed in transfected cells; host or cells: GH4C1 cells (rat pituitary, ATCC CCL-82.2)
Sequence (P36544 23-502): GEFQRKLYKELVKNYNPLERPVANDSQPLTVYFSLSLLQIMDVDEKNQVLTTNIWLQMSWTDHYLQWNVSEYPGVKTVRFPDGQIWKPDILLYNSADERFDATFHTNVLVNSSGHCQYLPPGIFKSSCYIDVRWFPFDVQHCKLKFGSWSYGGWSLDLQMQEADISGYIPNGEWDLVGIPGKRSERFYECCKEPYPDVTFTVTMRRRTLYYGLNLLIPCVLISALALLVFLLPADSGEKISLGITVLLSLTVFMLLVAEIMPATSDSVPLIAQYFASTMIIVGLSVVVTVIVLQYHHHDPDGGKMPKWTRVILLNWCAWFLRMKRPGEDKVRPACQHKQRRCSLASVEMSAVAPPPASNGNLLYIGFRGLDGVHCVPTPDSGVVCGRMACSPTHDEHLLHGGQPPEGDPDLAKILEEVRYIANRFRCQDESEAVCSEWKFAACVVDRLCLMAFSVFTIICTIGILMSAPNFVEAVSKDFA
Test: Evaluation of PAM activity with human α7 nACh receptor stably expressing cells (aequorin luminescence, FDSS7000, ACh EC20)
Assay type: cell-based
Details: test compound 10 μmol/L; ACh at EC20; ratio of RLU (Max-Min) of test-compound wells to control wells
API: label(entry) gives 1.0 if the entry's α7PAM (%) @ 10 μmol/L is strictly smaller than 2000%; on equality or larger values it gives 0.0.

Enquiry: Dear reviewer, please state whether `O=C(C1CCOCC1)N1CCC(n2ncc3cc(F)ccc32)CC1` has α7PAM (%) @ 10 μmol/L strictly beneath 2000%.
Return: 1.0

Enquiry: Dear reviewer, please state whether `CO[C@H]1CC[C@H](NC(=O)N2CCC(n3ncc4cc(-c5ccc(F)cc5)ccc43)CC2)CC1` has α7PAM (%) @ 10 μmol/L strictly beneath 2000%.
Return: 1.0

Enquiry: Dear reviewer, please state whether `CCOc1ccc2c(cnn2C2CCN(C(=O)NC3CCCCC3)CC2)c1` has α7PAM (%) @ 10 μmol/L strictly beneath 2000%.
Return: 0.0

Enquiry: Dear reviewer, please state whether `CCc1ccc2c(cnn2[C@H]2CC[C@@H](NC(=O)C3CCC(F)(F)CC3)CC2)c1` has α7PAM (%) @ 10 μmol/L strictly beneath 2000%.
Return: 0.0

Enquiry: Dear reviewer, please state whether `CCc1ccc2c(cnn2C2CCN(C(=O)NC3CCC(F)(F)CC3)CC2)c1` has α7PAM (%) @ 10 μmol/L strictly beneath 2000%.
Return: 0.0

Enquiry: Dear reviewer, please state whether `Cc1ccc2c(c1)c(C)nn2C1CCN(C(=O)NC2CCC(F)(F)CC2)CC1` has α7PAM (%) @ 10 μmol/L strictly beneath 2000%.
Return: 1.0

Enquiry: Dear reviewer, please state whether `CCOc1ccc2c(cnn2C2CCN(C(=O)NC3CCC(F)(F)CC3)CC2)c1` has α7PAM (%) @ 10 μmol/L strictly beneath 2000%.
Return: 1.0
